Tested on: HCC1569
procedureSummary: H1.0 immunofluorescence intensity relative to DMSO (% of DMSO); higher = stronger H1.0 induction, active = 140 or more;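 note: TDF is a line of transformed human dermal fibroblasts of mesenchymal origin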
details: concentration: 10 µM; 24 h
Entry note: the call must match one of active, inactive

- CC(C)NCC(O)c1cc(O)cc(O)c1.CC(C)NCC(O)c1cc(O)cc(O)c1.O=S(=O)(O)O (stereo unspecified) [Metaproterenol hemisulfate]: inactive
- CCC(C)C1OC2(CCC1C)CC1CC(CC=C(C)C(OC3CC(OC)C(OC4CC(OC)C(O)C(C)O4)C(C)O3)C(C)C=CC=C3COC4C(O)C(C)=CC(C(=O)O1)C34O)O2 (stereo unspecified) [Ivermectin]: inactive
- CCCCCCCCC=CCCCCCCCC(=O)OCC(CO)OC(=O)CCCCCCCC=CCCCCCCCC (stereo unspecified) [1,2-Dioleoyl-glycerol (18:1)]: inactive
- CC(C=CC1=C(C)CCCC1(C)C)=CC=CC(C)=CC(=O)Nc1ccc(O)cc1 [Retinoic acid p-hydroxyanilide]: active
- COc1cc(C(O)CO)ccc1OS(=O)(=O)[O-].[K+] (stereo unspecified) [MHPG sulfate potassium]: inactive

Now turn to the next molecule.
INPUT: Hi team, can someone confirm the assay call for Nc1ccn(C2OC(CO)C(O)C2(F)F)c(=O)n1 (stereo unspecified) [Gemcitabine] ?
OUTPUT: inactive

###

System: TDF
procedureSummary: H1.0 immunofluorescence intensity relative to DMSO (% of DMSO); higher = stronger H1.0 induction, active = 120 or more
details: concentration: 10 µM; 24 h
Examples of molecules with documented H1.0 immunofluorescence intensity follow.
Just the number, please, no unit attached.

Here are 5 molecules together with their reported answers.
- CC(C)CCC[C@@H](C)[C@H]1CC[C@H]2[C@@H]3CC(=O)[C@H]4C[C@@H](O)CC[C@]4(C)[C@H]3CC[C@]12C [(3beta,5alpha)-3-hydroxycholestan-6-one]: 98.5
- C=CCn1c(=O)c2c(nc(-c3ccc(S(=O)(=O)O)cc3)n2C)n(C)c1=O: 99.2
- Cc1cc2cc3c(C)cc(=O)oc3c(C)c2o1: 97.2
- Cc1ccc(-c2c(-c3nn(C)c4ncnc(N5CC[C@H](N6CCCCC6)C5)c34)cnn2C)cc1: 103
- CCCCCCCNC1CCCC1CCCCCCC(=O)O (racemic): 88.5

INPUT: H1.0 immunofluorescence intensity for CCCn1c(=O)c2[nH]c(-c3ccc(S(=O)(=O)O)cc3)nc2n(CCC)c1=O ?
OUTPUT: 90.4

INPUT: H1.0 immunofluorescence intensity for CC1(C)C(=O)N(CCN2CCC(C(=O)c3ccc(F)cc3)CC2)c2ccccc21.Cl [LY-310,762 hydrochloride] ?
OUTPUT: 94.2

INPUT: H1.0 immunofluorescence intensity for COc1ccc(OC)c2c(=S)c3ccccc3[nH]c12 ?
OUTPUT: 106

INPUT: H1.0 immunofluorescence intensity for COc1cc2c(c(OC)c1OC)-c1ccc(OC)c(=O)cc1C(NC=O)CC2 (stereo not given) ?
OUTPUT: 91.7

INPUT: H1.0 immunofluorescence intensity for COC1C=COC2(C)Oc3c(C)c(O)c4c(c3C2=O)C(=O)C(=CNN2CCN(C)CC2)C(=C4O)NC(=O)C(C)=CC=CC(C)C(O)C(C)C(O)C(C)C(OC(C)=O)C1C (stereo not given) ?
OUTPUT: 94.5
